System: Aspergillus oryzae
assay-summary: Antifungal activity against Aspergillus oryzae NCIM 643 after 48 hrs by agar well diffusion assay
Type: functional
condition-parameters: NCIM 643, 48 h
In this section, each of the compounds is paired with its reported MIC.
measured-parameter: MIC (µg/mL)

1. Cc1ccc(S(=O)(=O)NC(=O)Nc2ccccc2C(=O)/C=C/c2ccncc2)cc1 64
2. Cc1ccc(S(=O)(=O)NC(=O)Nc2ccccc2C(=O)/C=C/c2ccccc2)cc1 512
3. Cc1ccc(S(=O)(=O)NC(=O)Nc2ccccc2C(=O)/C=C/c2cccc(F)c2)cc1 64

====

In this section, each of the molecules is paired with its reported MIC.
Tested on: Penicillium chrysogenum
assay-summary: Antifungal activity against Penicillium chrysogenum NCIM 738 after 48 hrs by agar well diffusion assay
Format: functional
condition-parameters: NCIM 738, 48 h

molecule	scale-unit	MIC
Cc1ccc(S(=O)(=O)NC(=O)Nc2ccccc2C(=O)/C=C/c2ccc(F)cc2)cc1	µg/mL	64
Cc1ccc(S(=O)(=O)NC(=O)Nc2ccccc2C(=O)/C=C/c2cccc(O)c2)cc1	µg/mL	512
COc1cccc(/C=C/C(=O)c2ccccc2NC(=O)NS(=O)(=O)c2ccc(C)cc2)c1	µg/mL	128
CC(=O)N1CCN(c2ccc(OCC3COC(Cn4ccnc4)(c4ccc(Cl)cc4Cl)O3)cc2)CC1 (centres undefined) [KETOCONAZOLE]	µg/mL	16
